Each recorded value in this set is attributed to ChEMBL document CHEMBL3991601.

target: UniProt P00519
Sequence (P00519 whole entry): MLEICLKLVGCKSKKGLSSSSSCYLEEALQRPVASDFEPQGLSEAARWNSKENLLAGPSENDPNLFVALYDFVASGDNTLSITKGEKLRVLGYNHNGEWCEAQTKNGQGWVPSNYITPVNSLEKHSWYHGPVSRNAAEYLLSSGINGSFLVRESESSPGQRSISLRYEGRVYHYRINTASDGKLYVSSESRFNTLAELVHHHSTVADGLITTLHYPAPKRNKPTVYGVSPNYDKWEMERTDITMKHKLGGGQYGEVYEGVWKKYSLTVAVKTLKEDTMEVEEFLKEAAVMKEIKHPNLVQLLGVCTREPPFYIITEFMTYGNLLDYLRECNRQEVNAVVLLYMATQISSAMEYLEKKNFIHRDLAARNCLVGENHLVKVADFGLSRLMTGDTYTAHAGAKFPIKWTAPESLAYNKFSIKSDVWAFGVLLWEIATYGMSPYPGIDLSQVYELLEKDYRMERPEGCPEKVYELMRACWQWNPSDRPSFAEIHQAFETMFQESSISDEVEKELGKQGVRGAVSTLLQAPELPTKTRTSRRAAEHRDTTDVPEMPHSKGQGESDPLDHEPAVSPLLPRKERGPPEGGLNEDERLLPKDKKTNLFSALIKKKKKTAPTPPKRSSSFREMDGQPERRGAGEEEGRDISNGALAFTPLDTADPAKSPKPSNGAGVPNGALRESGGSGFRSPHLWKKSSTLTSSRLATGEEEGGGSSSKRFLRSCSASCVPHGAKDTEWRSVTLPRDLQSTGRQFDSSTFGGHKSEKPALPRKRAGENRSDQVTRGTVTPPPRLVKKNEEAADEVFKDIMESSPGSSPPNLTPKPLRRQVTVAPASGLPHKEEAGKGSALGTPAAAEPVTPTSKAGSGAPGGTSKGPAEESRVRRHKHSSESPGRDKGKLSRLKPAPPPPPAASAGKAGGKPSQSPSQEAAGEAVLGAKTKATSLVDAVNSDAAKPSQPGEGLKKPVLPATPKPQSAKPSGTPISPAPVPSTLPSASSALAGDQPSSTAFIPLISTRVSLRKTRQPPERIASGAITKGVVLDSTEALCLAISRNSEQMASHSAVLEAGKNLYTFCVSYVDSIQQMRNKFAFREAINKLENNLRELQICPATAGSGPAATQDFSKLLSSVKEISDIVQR
Active and inactive are the calls of the source.
// allowed return values: yes for active, no for inactive

Answered cases to consult:
COc1cc2c(Nc3ccc(Cl)c(Cl)c3F)ncnc2cc1OC[C@@H]1C[C@@H]2CN(C)C[C@@H]2C1: yes
Cc1csc(-c2nnc(Nc3ccc(Oc4ncccc4-c4ccnc(N)n4)cc3)c3ccccc23)c1: yes
Nc1ncnc2c1c(-c1cccc(OCc3ccccc3)c1)cn2[C@H]1C[C@@H](CN2CCC2)C1: no
CCCCCCCCCCCCCCCCCCOP(=O)([O-])OC1CC[N+](C)(C)CC1: no
Cc1nc2cc(-c3nn(C(C)C)c4ncnc(N)c34)ccc2o1: no
Cc1nc2cc(-n3ncc(C(=O)c4cc5ccccc5[nH]4)c3N)ccc2[nH]1: no

Exercise: Each compound tested received a call. Report the one for Cc1nc(NC(=O)N2CCC[C@H]2C(N)=O)sc1-c1ccnc(C(C)(C)C(F)(F)F)c1 .
Key: no

Exercise: Record lookup: outcome of this test for NC1(c2ccc(-c3nc4ccn5c(=O)[nH]nc5c4cc3-c3ccccc3)cc2)CCC1 ?
Key: no

Exercise: Recorded call for CC(=O)c1cnc2ccc(-c3cc(Cl)c(O)c(Cl)c3)nc2c1N[C@H]1CC[C@H](CN(C)C)CC1 ?
Key: yes

Exercise: Per the records of this test, what outcome belongs to Cc1nc(Nc2n[nH]c3c2CN(C(=O)N[C@H](CN(C)C)c2ccccc2)C3(C)C)c2sccc2n1 ?
Key: no

Exercise: Outcome? O=C(Nc1cc(C(F)(F)F)cc(C(F)(F)F)c1)c1cc(Cl)ccc1O
Key: no

Exercise: Tell me the recorded outcome of this test for C=CC(=O)N1CCC[C@H](n2c(=O)n(-c3ccc(Oc4ccccc4)cc3)c3c(N)ncnc32)C1 .
Key: no

Exercise: Hi, sorry to bother you, what did the test record for C=CC(=O)Nc1cc2c(Nc3ccc(F)c(Cl)c3)ncnc2cc1C#CC(C)(C)N1CCN(C)CC1 [AV-412 FREE BASE] ?
Key: no

Exercise: Which outcome was assigned to CO[C@H]1C[C@@H]2CC[C@@H](C)[C@@](O)(O2)C(=O)C(=O)N2CCCC[C@H]2C(=O)O[C@H]([C@H](C)C[C@@H]2CC[C@@H](OC(=O)C(C)(CO)CO)[C@H](OC)C2)CC(=O)[C@H](C)/C=C(\C)[C@@H](O)[C@@H](OC)C(=O)[C@H](C)C[C@H](C)/C=C/C=C/C=C/1C in this test?
Key: no

Exercise: Identify the outcome logged in this assay for the compound shown: CC(C)c1cc(CNc2nc(Nc3cc(C4CC4)[nH]n3)cc(N3CCN(C)CC3)n2)on1
Key: yes

Exercise: State the result this test recorded for Cc1cc(C(=O)NOCCO)c(Nc2ccc(I)cc2F)n(C)c1=O .
Key: no

Exercise: // param item: O=c1[nH]ccc2cc(OC3CCNCC3)ccc12 [SAR-407899 FREE BASE] ; yields the recorded call
Key: no

Exercise: Which outcome was entered for the compound COc1cc([C@@H]2c3cc4c(cc3[C@H](O)[C@H]3COC(=O)[C@@H]23)OCO4)cc(OC)c1OC in this test?
Key: no

Exercise: Returns: the outcome recorded for NC(=O)Nc1cc(-c2cccc(F)c2)sc1C(=O)N[C@H]1CCCNC1 in this assay.
Key: yes

Exercise: Any idea what this test logged for C[C@@H](N)c1ccc(C(=O)Nc2ccnc3[nH]ccc23)cc1 ?
Key: no

Exercise: Called result for CO[C@H]1C[C@@H]2CC[C@@H](C)[C@@](O)(O2)C(=O)C(=O)N2CCCC[C@H]2C(=O)O[C@H]([C@H](C)C[C@@H]2CC[C@@H](OP(C)(C)=O)[C@H](OC)C2)CC(=O)[C@H](C)/C=C(\C)[C@@H](O)[C@@H](OC)C(=O)[C@H](C)C[C@H](C)/C=C/C=C/C=C/1C
Key: no

Exercise: Outcome? CCn1c(C(=O)N(C2CC2)C2CC2)cc2c3c(ncn3C)c(Nc3cc(C)n(C)n3)nc21
Key: no

Exercise: Just curious, what result did Cc1cnc(NC(=O)Nc2cc(Br)c(C)cc2OC[C@@H]2CNCCO2)cn1 get here?
Key: no

Exercise: Which outcome was entered for the compound O=C1NC(=O)[C@@H](c2cn3c4c(cccc24)CCC3)[C@@H]1c1c[nH]c2ccccc12 [TIVANTINIB] in this test?
Key: no
